Outcome Measure: logP
Give bare numbers.

Each of the following entries comes with a recorded value; kindly state logP for each.
1. O=C(NC1CC1)c1cc(N2CC2)c([N+](=O)[O-])cc1[N+](=O)[O-]
2. CCOC(=O)C(=Cc1cccc(Cl)c1)C(=O)OCC
3. O=C(O)COc1cccc(S(F)(F)(F)(F)F)c1
4. CCNNC(=O)COc1ccc(Cl)cc1
5. CCOc1ncnc(NS(=O)(=O)c2ccc(N)cc2)c1OC
6. CN(C)N=Nc1ccc(NC(N)=O)cc1
7. NNC(=O)c1ccc2ncccc2c1
8. O=C(O)CCCCCCCN1C(=O)C=CC1=O

Marked response:
1: 0.74; 2: 3.49; 3: 2.78; 4: 1.73; 5: 1.18; 6: 1.25; 7: 0.35; 8: 1.99
